Test system: P. vulgatus WT;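 note: active when median AUC fell below 0.1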
Assay: growth AUC normalised to DMSO control (median) (fraction of control); higher = less growth inhibition, active = hit call of the paper;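 active = normalised median growth AUC below 0.1 of DMSO control; inactive = AUC 0.1 or higher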
Details: 20 µM
Where a name gives a salt, the structure may show the parent alone.
I would appreciate it if you answered using one of these outcomes: active, inactive

Could you please tell me the result logged for N[C@@H]1CCCCN(c2c(F)cc3c(=O)c(C(=O)O)cn(C4CC4)c3c2Cl)C1 [Besifloxacin hydrochloride] in this assay?
active

Each compound tested received a call. Report the one for CC(C)[C@H](N)C(=O)OCC(CO)OCn1cnc2c(=O)nc(N)[nH]c21 (some centres undefined) [Valganciclovir hydrochloride] .
inactive

// return assay outcome for CN(C)CCCN1c2ccccc2Sc2ccc(Cl)cc21 [Chlorpromazine hydrochloride]
inactive

Hi, sorry to bother you, what did the test record for CC(COc1ccccc1)NC(C)C(O)c1ccc(O)cc1 (centres undefined) [Isoxsuprine hydrochloride] ?
inactive

Record request — test call for CCCNC(C)C(=O)Nc1ccccc1C (centres undefined) [Prilocaine hydrochloride]
inactive

Please indicate how the test categorized Nc1ccn([C@@H]2CS[C@H](CO)O2)c(=O)n1 .
inactive

Tell me the recorded outcome of this test for CC(/C=C1\SC(=S)N(CC(=O)O)C1=O)=C\c1ccccc1 .
inactive

I'd appreciate the recorded outcome for C[C@]12CC[C@H]3C(=CCc4cc(O)ccc43)[C@@H]1CCC2=O from this test.
inactive

# lookup: test call for O=C(O)CNC(=O)C(CS)Cc1ccccc1 (centres undefined)
inactive

From: the supplement of paper PMC12350171
